Origin of the recorded values: the supplement of paper PMC11451515

tested on: P12-Ichikawa; experiment: cell viability relative to DMSO control; higher = less cytotoxic; settings: RPMI 5 mM glucose + 10% FBS; 48 h; 0.19 µM
Parameter Measured: cell viability (%)

Molecule	Study System	Reported Result
C[C@H]1[C@@H](C(=O)C[C@H]2O[C@@H]3O[C@]4(C)CC[C@H]5[C@H](C)CC[C@@H]([C@H]2C)[C@@]35OO4)O[C@@H]2O[C@]3(C)CC[C@H]4[C@H](C)CC[C@@H]1[C@@]24OO3	P12-Ichikawa	119
NCCCCNCCCN	P12-Ichikawa	118
O=C(O)CCn1c2c(c3ccccc31)C[C@H](N[S+](=O)([O-])c1ccc(F)cc1)CC2	P12-Ichikawa	122
c1ccc(CNc2nc(N3CCOc4ccccc43)nc3c2CCCC3)cc1	P12-Ichikawa	110
O=C(c1ccc(F)c(F)c1Nc1ccc(I)cc1F)N1CC(O)([C@@H]2CCCCN2)C1	P12-Ichikawa	104
Cc1cc(Nc2nc(N[C@@H](C)c3ccc(F)cc3)c(C#N)cc2F)n[nH]1	P12-Ichikawa	100
NC(=O)C1CCCc2c1[nH]c1ccc(Cl)cc21 (centres undefined)	P12-Ichikawa	112
O=C\1N(N\C=C1[N]2C=CN=N2)C3=NC=NC(=C3)N4CCOCC4	P12-Ichikawa	46.8
CN1CCN2c3ncccc3Cc3ccccc3C2C1 (centres undefined)	P12-Ichikawa	125
